# Tested on: SNB-75 CNS
# PROCEDURE_TEXT: NCI-60 one-dose screen, 48 h
# STUDY_CONDITIONS: 10 µM unless noted
This is part of a sample that, as a whole, favours compounds with a hit. Of some 83,000 tested, about 20% had one in any assay. The source made the active and inactive calls. The calls were made as follows: active = growth percent below 10; inactive = the rest.
Give one outcome, nothing more. List: active, inactive

Ask: For this molecule, state the assay outcome: COC(=O)[C@]1(C)CCC[C@]2(C)[C@H]3C[C@H]4C(C(C)C)=C[C@]3(CC[C@H]21)[C@H]1[C@@H]4[C@@H](OCCC#N)CC[C@@H]1OCCC#N
Reply: inactive

Ask: For this molecule, state the assay outcome: COc1cc(-c2cc(-c3ccc(N(C)C)cc3)nc(N3CCC(O)CC3)c2C#N)cc(OC)c1OC
Reply: active

Ask: For this molecule, state the assay outcome: Cc1ccccc1Cn1cnc2ccc(-c3cc(NC(=O)c4ccc(NC5CCN(C)CC5)cc4)n[nH]3)cc21
Reply: active

Ask: For this molecule, state the assay outcome: C#Cc1cccc(Nc2ncnc3ccc(-c4cnc(N)nc4)cc23)c1
Reply: active

Ask: For this molecule, state the assay outcome: CCOC(=O)c1nc(Nc2ccc(NC(=O)Nc3ccc(F)cc3)cc2)c2ccccc2n1
Reply: inactive

Ask: For this molecule, state the assay outcome: O=C(CSc1nc(-c2ccccc2)[nH]c1S(=O)(=O)c1ccccc1)NC1CC1
Reply: inactive

Ask: For this molecule, state the assay outcome: N#Cc1c(-c2ccc(Cl)cc2)nc(SCC(=O)NC2=NN=C(c3ccccc3)CS2)[nH]c1=O
Reply: inactive

Ask: For this molecule, state the assay outcome: CCCCNC(=O)Oc1ccc(/C(=C(/CC)Cc2ccccc2)c2ccc(OCCN3CCCCCC3)cc2)cc1
Reply: inactive

Ask: For this molecule, state the assay outcome: CC(C)CCNC(=O)Cn1cccc(NC(=O)OCc2ccccc2)c1=O
Reply: inactive

Ask: For this molecule, state the assay outcome: COc1cc(/C=C/C(=O)c2cccc(Nc3nc(Nc4ccccc4)nc(Nc4ccccc4)n3)c2)cc(OC)c1OC
Reply: inactive

Ask: For this molecule, state the assay outcome: CNC(=O)c1cc(Oc2ccc3nc(NC(C)=O)sc3c2)ccn1
Reply: inactive

Ask: For this molecule, state the assay outcome: CN(C)c1ccc(Nc2cc(-c3cccc(OC(F)(F)F)c3)nc3ccc(N4CCCC4)cc23)cc1
Reply: inactive

Ask: For this molecule, state the assay outcome: COC(C(=O)[C@@H](O)[C@@H](C)O)[C@@H]1Cc2cc3cc(O[C@H]4C[C@@H](O[C@H]5C[C@@H](O)[C@H](O)C(C)O5)[C@H](O)C(C)O4)c(C)c(O)c3c(O)c2C(=O)[C@H]1O[C@H]1C[C@@H](O[C@H]2C[C@@H](O[C@H]3C[C@@H](O)[C@H](OC)C(C)O3)[C@@H](O)C(C)O2)[C@H](O)C(C)O1 (some centres not stated)
Reply: active

Ask: For this molecule, state the assay outcome: O=C(c1cc2ccccc2o1)c1nn(-c2ccccc2)/c(=N/N=Cc2cn(-c3ccccc3)nc2-c2cc3ccccc3oc2=O)s1
Reply: inactive

Ask: For this molecule, state the assay outcome: COc1cc(CNC(=O)CCCC/C=C/C(C)C)ccc1OCc1nnc(Nc2ccc([N+](=O)[O-])cc2)o1
Reply: inactive

Ask: For this molecule, state the assay outcome: CC1=C(C(=O)OC(C)C)C(c2ccc3c(c2)OCO3)NC(=S)N1 (configuration not stated)
Reply: inactive

Ask: For this molecule, state the assay outcome: Cc1nc2sc(C(=O)Nc3ccccc3)c(N)c2cc1C(=O)c1ccccc1
Reply: inactive

Ask: For this molecule, state the assay outcome: CCOC(=O)C1=C(NC)OCC1=O
Reply: inactive

Ask: For this molecule, state the assay outcome: O=C(O)c1[nH]c(=O)[nH]c(=O)c1[N+](=O)[O-]
Reply: inactive

Ask: For this molecule, state the assay outcome: CCOC(=O)CSc1ncnc2c1c(-c1ccccc1)c(-c1ccccc1)n2-c1ccc(C)cc1
Reply: inactive

Ask: For this molecule, state the assay outcome: C=CCc1c(O)c(C(=O)/C=C/c2ccc(Cl)cc2)c(OC)c2ccoc12
Reply: inactive

Ask: For this molecule, state the assay outcome: COc1ccc(-c2csc(N(C(=O)N3CCN(c4cc5c(cc4F)c(=O)c(C(=O)O)cn5C4CC4)CC3)c3ccccc3)n2)cc1
Reply: inactive

---

Answer each item with its documented growth.
# Test system: U251 CNS
# PROCEDURE_TEXT: NCI-60 one-dose screen, 48 h (100 = growth as untreated, 0 = no growth, -100 = all killed)
# STUDY_CONDITIONS: 10 µM unless noted
Compounds without any hit were thinned out: in the full panel of roughly 83,000, 20% have a hit. Calls of active or inactive are those of the source. Rule for the calls: active = growth percent below 10; inactive = the rest.

Ask: growth lookup needed for Cc1ccc(-c2cc(-c3ccc(Cl)cc3)nc(NC(=O)c3cccnc3)n2)cc1 , thanks.
Reply: 101% (inactive)

Ask: growth lookup needed for Cn1cc(-c2csc(-c3ccc(Cl)cc3)n2)c2cccnc21 , thanks.
Reply: 4.92% [100 µM] (active)

Ask: growth lookup needed for COCCn1c(-c2csc(-c3cn(C)c4ccc(OC)cc34)n2)cc2cccnc21 , thanks.
Reply: 48.4% (inactive)

Ask: growth lookup needed for C#CCn1cnc2c(Nc3cccc(NC(=O)C=C)c3)ncnc21 , thanks.
Reply: 88.2% (inactive)

Ask: growth lookup needed for CCCCCCCCCCCCCCCCCCOc1ccccc1CC(=O)NCC[N+]1(C)CCCC1 , thanks.
Reply: 6.79% (active)

---

# System: EKVX NSCLC
# PROCEDURE_TEXT: NCI-60 one-dose screen, 48 h
# STUDY_CONDITIONS: 10 µM unless noted
Compounds without any hit were thinned out: in the full panel of roughly 83,000, 20% have a hit. Active and inactive are the calls of the source. The calls were made as follows: active = growth percent below 10; inactive = the rest.
Give one outcome, nothing more. List: yes for active, no for inactive

Ask: For this molecule, state the assay outcome: COc1cc(-n2cc(-c3cc(O)c(C/C=C(\C)CCC=C(C)C)c(O)c3)nn2)cc2c1O[C@]1(C)CC[C@@H](O)C(C)(C)[C@H]1C2
Reply: no

Ask: For this molecule, state the assay outcome: Cc1ccc(-c2nn(-c3ccccc3)cc2C=C2C(=O)ON=C2C(C)C)cc1
Reply: no

Ask: For this molecule, state the assay outcome: Cc1cccc(Cl)c1NC(=O)c1ccc2nc(NC(=O)NCCN(C)C)sc2c1
Reply: no

Ask: For this molecule, state the assay outcome: O=C(Nc1ccc(-c2nc(N3CCOCC3)c3cccn3n2)cc1)Nc1cccnc1
Reply: yes

Ask: For this molecule, state the assay outcome: Fc1ccc2[nH]cc(-c3nonc3-c3c[nH]c4ccc(Br)cc34)c2c1
Reply: no

Ask: For this molecule, state the assay outcome: CCCCN[C@H]1CC[C@@]2(C)[C@@H](CC[C@@]3(C)[C@H]2[C@H](O)C[C@H]2/C(=C(\CCC=C(C)C)C(=O)OC)[C@@H](OC(C)=O)C[C@@]23C)[C@@H]1C
Reply: no

Ask: For this molecule, state the assay outcome: O=C(O)[C@@H]1c2ccccc2-c2ccccc2[C@H]1C(=O)O
Reply: no

Ask: For this molecule, state the assay outcome: COc1cc(-c2cc(-c3cccs3)c(C#N)c(N3CCOCC3)n2)cc(OC)c1OC
Reply: no

Ask: For this molecule, state the assay outcome: Cc1cc(Cl)ccc1Nc1nc(C(F)(F)F)ccc1C(=O)N/N=C/c1ccc([N+](=O)[O-])cc1
Reply: yes

---

# Test system: NCI-H522 lung
# PROCEDURE_TEXT: NCI-60 one-dose screen, 48 h
# STUDY_CONDITIONS: 10 µM unless noted
This is part of a sample that, as a whole, favours compounds with a hit. Of some 83,000 tested, about 20% had one in any assay. Activity calls are given as the source filed them. The calls were made as follows: active = growth percent below 10; inactive = the rest.
Give one outcome, nothing more. List: true (1) = active, false (0) = inactive

Ask: For this molecule, state the assay outcome: Cn1cc(-c2csc(-c3ccc(Cl)cc3)n2)c2cccnc21
Reply: true (1)

Ask: For this molecule, state the assay outcome: CC(C)=NNc1ccccn1
Reply: false (0)

Ask: For this molecule, state the assay outcome: O=C1COCCN1c1ccc(Nc2nc(Cl)nc(OCc3cn(Cc4ccccc4)nn3)n2)cc1
Reply: false (0)

Ask: For this molecule, state the assay outcome: Cc1ccc(S(=O)(=O)N2CCCC2CO)cc1 (centres undefined)
Reply: false (0)

Ask: For this molecule, state the assay outcome: CCCCCCCCCCCCCCCC(N)c1ccccc1 (centres undefined)
Reply: false (0)

Ask: For this molecule, state the assay outcome: O=C1/C(=C/c2ccc(Cl)cc2)COc2ccc(O)c(O)c21
Reply: true (1)

Ask: For this molecule, state the assay outcome: CCN(CC)CCOc1ccc(C(=C(C)c2ccc(Cl)cc2)c2ccc(OCCN(CC)CC)cc2)cc1
Reply: true (1)

Ask: For this molecule, state the assay outcome: CCCCNC(=O)Oc1ccc(/C(=C(/CC)Cc2ccccc2)c2ccc(OCCN3CCCCCC3)cc2)cc1
Reply: false (0)

Ask: For this molecule, state the assay outcome: CC(=O)N1N=C(c2ccc(Nc3nc(Nc4ccc(Cl)cc4)nc(Nc4ccc(Cl)cc4)n3)cc2)CC1c1ccco1 (centres undefined)
Reply: false (0)

Ask: For this molecule, state the assay outcome: Cc1nnc(-n2c(O)cc(=O)n(-c3ccccc3)c2=S)nc1/C=C/c1ccc(N(C)C)cc1
Reply: false (0)

Ask: For this molecule, state the assay outcome: COC(C(=O)[C@@H](O)[C@@H](C)O)[C@@H]1Cc2cc3cc(O[C@H]4C[C@@H](O[C@H]5C[C@@H](O)[C@H](O)C(C)O5)[C@H](O)C(C)O4)cc(O)c3c(O)c2C(=O)[C@H]1O[C@H]1C[C@@H](O[C@H]2C[C@@H](O[C@H]3C[C@@H](OC)[C@H](O)C(C)O3)[C@@H](O)C(C)O2)[C@H](O)C(C)O1 (some centres undefined)
Reply: false (0)

Ask: For this molecule, state the assay outcome: CC(C)c1ccc(COCc2cc(CN3CCCC3)c(O)c3ncccc23)cc1
Reply: true (1)

Ask: For this molecule, state the assay outcome: CCCCCCCCn1ccc2cc(NC(=O)Cn3cc(CN4CCCCC4)nn3)ccc21
Reply: false (0)

Ask: For this molecule, state the assay outcome: C=C(C)[C@@H]1CC[C@]2(C(=O)NCCNCCN)CC[C@]3(C)[C@H](CC[C@@H]4[C@@]5(C)C/C(=C/c6ccncc6)C(=O)C(C)(C)[C@@H]5CC[C@]43C)[C@@H]12
Reply: false (0)

Ask: For this molecule, state the assay outcome: COc1cc(OC)c2sc(-c3ccc(-n4cncc4-c4ccc(OC)c(OC)c4)cc3)nc2c1
Reply: false (0)

Ask: For this molecule, state the assay outcome: OCCCC1CCN(C(Cc2ccccc2)c2ccccc2)CC1 (centres undefined)
Reply: false (0)

Ask: For this molecule, state the assay outcome: CCc1n(Cc2ccc3ccccc3c2)cc[n+]1Cc1ccc2ccccc2c1
Reply: true (1)

Ask: For this molecule, state the assay outcome: C=C1CC[C@@H]2[C@](C)(COC(C)=O)[C@H](OC(C)=O)CC[C@@]2(C)[C@@H]1CC(Sc1ccccc1)C1=CCOC1=O (some centres undefined)
Reply: true (1)

Ask: For this molecule, state the assay outcome: OCCOCCN(Cc1ccccn1)Cc1cc(I)cc(I)c1O
Reply: false (0)

Ask: For this molecule, state the assay outcome: N#Cc1c(-c2cccs2)cc(-c2cccnc2)[nH]c1=O
Reply: false (0)

Ask: For this molecule, state the assay outcome: O=C(Nc1ncc(Cc2ccc(Cl)c(C(F)(F)F)c2)s1)c1ccc2nnsc2c1
Reply: false (0)

Ask: For this molecule, state the assay outcome: CCCC(O)Cn1ncc(C(=O)OCC)c1NC(=O)NCc1ccccc1F (centres undefined)
Reply: false (0)

Ask: For this molecule, state the assay outcome: O=[N+]([O-])c1ccc(-c2nc(N3CCOCC3)c3c4c(sc3n2)CCCC4)cc1
Reply: false (0)

Ask: For this molecule, state the assay outcome: Cc1cccc(N2CCN(CC(O)COc3ccc(Cl)cc3)CC2)c1 (centres undefined)
Reply: false (0)

Ask: For this molecule, state the assay outcome: Cc1ccc(-c2csc(NC(=O)CN3CCN(c4cc5c(cc4F)c(=O)c(C(=O)O)cn5C4CC4)CC3)n2)cc1
Reply: true (1)

Ask: For this molecule, state the assay outcome: C/C(=N/O)c1ccc(F)cc1
Reply: false (0)

Ask: For this molecule, state the assay outcome: COc1cc2c(c(OC)c1OC)C(=O)CC(c1cccc(NC(=O)c3ccc(Br)cc3)c1)O2 (centres undefined)
Reply: true (1)

Ask: For this molecule, state the assay outcome: COC1=CC(c2ccc[nH]2)=N/C1=C\c1[nH]c(C)c(C(=O)OCc2ccccc2)c1C
Reply: true (1)

Ask: For this molecule, state the assay outcome: O=C(CN1C(=O)CCC1=O)Nc1ncc(Cc2ccc(F)cc2)s1
Reply: false (0)
